- experimentalSystem: CDK2/cyclin A2 (Homo sapiens, UniProt P24941)
- Construct: purchased Carna Biosciences, Inc. QS S Assist CDK2/Cyclin A2_FP Kit
- protocolText: Human CDK2/cyclin A2 inhibitory activity (QS S Assist CDK2/Cyclin A2_FP Kit, IMAP fluorescence polarization)
- Type: biochemical
- experimentalSetup: Human CDK2/cyclin A2 inhibitory activity; read-out: CDK2 Activity symbol
Would you mind telling me the reported IC50 of each entry?

Using the record for "CC(C)Nc1nc([C@@H](C)O)cc2cnc(Nc3ccc(N4CCN(CCO)CC4)nn3)nc12" , report its IC50.
≥ 0.1 µM

Using the record for "Cc1cccc(Nc2ncc3cc(C(F)F)nc(NC(C)C)c3n2)n1" , report its IC50.
≥ 0.1 µM

Using the record for CC(O)c1cc2cnc(Nc3ccc(N4CCNCC4)cn3)nc2c(NC2CCOCC2)n1 (stereo not shown) , report its IC50.
≥ 0.1 µM

Using the record for "CC(C)Nc1nc(C(F)F)cc2cnc(Nc3ccc(CN(C)S(C)(=O)=O)cn3)nc12" , report its IC50.
≥ 0.1 µM
